B1: MYBL2 (parent)
chain: FPNRTDQQCQYRWLRVLNPDLVKG

Variants of: B1
Assay: protein stability index of a GFP-peptide fusion (GPS, HEK-293T) (PSI 1-6); higher = more stable;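 note: lentivirally expressed fusions sorted by FACS into six bins by GFP to DsRed ratio, PSI derived from sequencing read proportions per bin multiplied by bin number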
Details: c terminus: a fixed tail appended
Reported protein stability index values are given for each entry in this list.
measured_attribute: protein stability index

1) G24P = 2.26
2) Y11N = 2.39
3) V16K = 2.02
4) P2I = 1.13
5) T5G = 1.53
6) L17Q = 2.45
7) Q10I = 1.79
8) D20C = 1.83
9) L21S = 2.17
10) W13T = 2.52
11) D6V = 1.98
12) L17T = 1.63
13) V22H = 2.74
14) W13L = 2.08
15) R4N = 1.94
16) Q8E = 2.01
17) Q10Y = 1.79
18) Y11W = 1.66
19) Q8S = 1.83
20) L21N = 2.37
21) Q7D = 2.3

// provenance: the supplement of paper PMC10567573
